test system: SW-620 colon; assay: NCI-60 one-dose screen, 48 h (100 = growth as untreated, 0 = no growth, -100 = all killed); conditions: 10 µM unless noted
About 83,000 compounds went through this panel and 20% of them were active in at least one assay; those are over-represented in the sample as a whole.
Please provide measured growth for the entries that follow.
Express your answer in %, writing the number without its unit.

Write growth of N#CC1=C(N)Oc2c(ccc3cccnc23)C1c1ccccc1 (stereo not drawn) ; system used: SW-620 colon
29

Would you please give the reported growth of Oc1cccc(-c2nc(-c3n[nH]c(=S)n3-c3ccccc3)cc3c2[nH]c2ccccc23)c1 with SW-620 colon?
20

Provide the reported growth (system: SW-620 colon) for COc1ccccc1/C=C/C1=C(C)CCC(c2ccccc2OC)C1C (stereo not drawn)
18.2

Give the observed growth of O=C1/C(=C/c2ccccc2)COc2ccc(O)cc21 for SW-620 colon.
53.1

Look up SW-620 colon data: growth of COCCn1cc(-c2nc(-c3cc4cccnc4n3C)cs2)c2cc(OC)ccc21 , then report it.
77.1

State growth (SW-620 colon) of CN(C)CC1C(=O)O[C@H]2[C@H]1CC/C(COC(=O)NCc1ccc(Cn3c(=O)sn(CCCI)c3=O)cc1)=C\CC[C@@]1(C)O[C@@H]21 (stereo partly drawn) .
-74.9

Please report growth with SW-620 colon for item O=C1CCc2c(sc3[nH]c(=S)n(-c4cc(C(F)(F)F)cc(C(F)(F)F)c4)c(=O)c23)C1 .
18.5

Please indicate recorded growth of N#CC1=C(N)Oc2c(ccc3ccccc23)C1c1cc2ccccc2n2nnnc12 (stereo not drawn) measured with SW-620 colon.
9.58

Please tell me the measured growth for O=C(Nc1ncc(Cc2ccccc2)s1)c1ccc2c(c1)OCCO2 ; system: SW-620 colon.
35.2

Report growth under test system SW-620 colon for O=C1c2c(c3c4cc(F)ccc4oc3c3[nH]c4ccccc4c23)C(=O)N1O .
31.6

Give growth only, for Cc1ccc(S(=O)(=O)N(CCC(=O)O)c2ccccc2)cc1 , using SW-620 colon data.
104

Would you please give the reported growth of O=C1CCC(C(=O)N/N=C/c2ccc([N+](=O)[O-])cc2)N1 (stereo not drawn) with SW-620 colon?
105

State the measured growth (SW-620 colon) of Nc1ncc(-c2ccc3ncnc(N4CCc5cc(F)c(Cl)cc54)c3c2)cn1
66.4

Give growth only, for O=C1/C(=C/c2ccc(Br)cc2)COc2ccc(O)cc21 , using SW-620 colon data.
1.35

Give growth for this entry on SW-620 colon: COc1ccc(NC(=O)CSc2oc(-c3ccccc3)nc2S(=O)(=O)c2ccc(Cl)cc2)c(OC)c1
81.7

Check SW-620 colon data and give growth for CCOC(=O)C1=C(c2ccccc2)N=C2SC=C(c3cccc([N+](=O)[O-])c3)N2C1c1ccc(O)cc1 (stereo not drawn) .
97.6

For SW-620 colon, give growth of the listed compound: O=C(CSc1nnc(-c2ccc(Cl)c(Cl)c2)n1-c1ccccc1)Nc1ccc(C(=O)/C=C/c2ccc(Cl)cc2)cc1
94.4

Answer with growth of NC(=O)[C@@H]1Cc2ccccc2CN1C(=O)c1ccc2c(c1)Cc1ccccc1-2 measured for SW-620 colon.
110

Report value only: growth, SW-620 colon, O=C(/C=C/C12c3ccccc3C(c3ccccc31)C1C(=O)NC(=O)C12)c1cccs1 (stereo not drawn)
27.1

# assay system SW-620 colon: give growth of CC/C(=C(/c1ccc(Cl)cc1)c1ccc(OCCN2CCCCCC2)cc1)c1ccccc1
44.7

Write down measured growth (SW-620 colon) for this compound. Cc1c2ccncc2c(C)c2c1c1ccccc1n2CCCCCC(=O)O
82.4

Lab note: SW-620 colon assay, enter growth for COc1cc(C(=O)n2nc(NCCCc3ccccc3)c3cc(N)ccc32)cc(OC)c1OC here
112

Give SW-620 colon growth for the following compound: Cc1cc([N+](=O)[O-])ccc1NC(=O)c1ccc2c(c1)nc(-c1ccccc1)n2C1CCCCC1
97.6

Write down measured growth (SW-620 colon) for this compound. Cc1ccc2c(n1)C[C@H](C(C)(C)O)CC[C@H]2C
104

GET growth | system: SW-620 colon | item: CC(=O)[C@H]1CC[C@]2(C)[C@@H]1CC[C@@H]1[C@@]3(C)C/C(=C/c4cccnc4)C(=O)C(C)(C)[C@@H]3CC[C@]12C
61.9

Quote growth with test system SW-620 colon for CC1=C([Se]CC(OC(=O)[C@@H](CO)NC(=O)OC(C)(C)C)C(=O)NCCCCCC(=O)OCc2ccccc2)C(=O)c2ccccc2C1=O (stereo partly drawn)
-42

Answer with growth of COc1cc(C2CC(c3cccc(Nc4ccncc4)c3)=Nc3c(N)ncnc3N2)cc(OC)c1OC (stereo not drawn) measured for SW-620 colon.
90.6

Supply growth measured with SW-620 colon for COc1ccc2c(c1)c(-c1nc(-c3cn(C)c4ccncc34)cs1)cn2C .
-77.5

Under SW-620 colon: report growth of CN(C)c1ccc(/C=C/C2=[N+](C)c3ccccc3C2(C)C)cc1 .
37.7

Given COc1ccc(Cn2cc3c(c2)-c2oncc2CC3)cc1 , report its growth on SW-620 colon.
27.2

Quote growth with test system SW-620 colon for O=C1C2C(c3cccs3)C=C(c3ccc(Cl)cc3)N2C(=S)N1c1ccccc1 (stereo not drawn)
102

Write growth of COc1ccc2c(O)cc3c(c2c1)[C@H](CCl)CN3C(=O)c1cc2cc(NC(=O)CCN3CCOCC3)ccc2[se]1 ; system used: SW-620 colon
-41.4

Write down the reported growth (system: SW-620 colon) of CC(=O)O[C@H]1CC[C@@]2(C)C(=CC[C@@H]3[C@@H]2CC[C@]2(C)C(Cl)=C(c4nc5ccc(Cl)cn5c4NC(C)(C)C)C[C@@H]32)C1
98.3
